Test system: EW-22 (Ewing's Sarcoma)
method: combination Emax (second highest fraction inhibited in the dose matrix, 72 h); higher = more inhibition; extreme values may be limits of the assay
combination Emax overview
Just the number.

Input: Sample Cc1cc2ncnn2cc1Nc1ncc2c(n1)n(C1CCOCC1)c(=O)n2C [AZD7648] + COc1cc([C@@H]2c3cc4c(cc3[C@@H](O[C@@H]3O[C@@H]5CO[C@@H](C)O[C@H]5[C@H](O)[C@H]3O)[C@H]3COC(=O)[C@H]23)OCO4)cc(OC)c1O [Etoposide] (first compound max 10 µM, 7x7, partner max 10 µM) — what was its combination Emax?
Output: 0.938

Input: Sample COc1cccc(OCCCN)c1-c1cc(Nc2cnc(C#N)cn2)n[nH]1 [Prexasertib] + Cc1cc2ncnn2cc1Nc1ncc2c(n1)n(C1CCOCC1)c(=O)n2C [AZD7648] (first compound max 1 µM, 7x7, partner max 10 µM) — what was its combination Emax?
Output: 0.89

Input: Sample NC1(C(=O)N[C@@H](CCO)c2ccc(Cl)cc2)CCN(c2ncnc3[nH]ccc23)CC1 [Capivasertib] + C[C@@H]1COCCN1C2=NC(=NC(=C2)C3(CC3)[S@](=N)(=O)C)C4=C5C=CNC5=NC=C4 [AZD6738] (first compound max 10 µM, 7x7, partner max 10 µM) — what was its combination Emax?
Output: 0.908
